target: Glutaminyl cyclase (QC) (Homo sapiens (Human), UniProt Q16769); test: Glutaminyl cyclase assay, determination of IC50 values and calculation of Ki values (H-Gln-AMC substrate, pGAP auxiliary enzyme; pH 8.0 or pH 6.0); format: biochemical; conditions: pH 6, read-out: hQC Ki [μM] pH6
Sequence (Q16769 29-361): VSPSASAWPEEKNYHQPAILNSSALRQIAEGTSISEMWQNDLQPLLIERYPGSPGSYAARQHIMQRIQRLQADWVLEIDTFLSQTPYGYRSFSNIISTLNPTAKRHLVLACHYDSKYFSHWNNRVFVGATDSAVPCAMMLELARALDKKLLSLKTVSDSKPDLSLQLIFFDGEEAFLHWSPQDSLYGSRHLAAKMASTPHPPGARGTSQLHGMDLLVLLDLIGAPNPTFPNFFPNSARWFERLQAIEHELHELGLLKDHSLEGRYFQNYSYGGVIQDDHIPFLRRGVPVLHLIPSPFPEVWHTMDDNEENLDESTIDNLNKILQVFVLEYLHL
ENDPOINT: Ki
Include the unit right after the number.

Field Ki (Glutaminyl cyclase (QC) (Homo sapiens (Human), UniProt Q16769)), entry `Cn1cnnc1C1CCN(S(=O)(=O)c2ccc(F)cc2)CC1` : 3.05 µM

Field Ki (Glutaminyl cyclase (QC) (Homo sapiens (Human), UniProt Q16769)), entry `COc1ccc(-c2c(C)cccc2NCc2ccc3[nH]cnc3c2)cc1` : 2.38 µM

Field Ki (Glutaminyl cyclase (QC) (Homo sapiens (Human), UniProt Q16769)), entry `Nc1nnc(C2CCN(S(=O)(=O)c3ccc(F)cc3)CC2)s1` : 1.18 µM

Field Ki (Glutaminyl cyclase (QC) (Homo sapiens (Human), UniProt Q16769)), entry `COc1ccc(-c2cnccc2NCc2ccc3[nH]cnc3c2)cc1OC` : 1.63 µM

###

target: UniProt:Q16769; assay: Glutaminyl cyclase assay, determination of IC50 values and calculation of Ki values (H-Gln-AMC substrate, pGAP auxiliary enzyme; pH 8.0 or pH 6.0); format: biochemical; settings: pH 8, read-out: hQC Ki [μM] pH8
Binning scheme for Ki: bottom end: < 2 µM; midrange: ≥ 2 µM and < 7 µM; top end: ≥ 7 µM

Here are 3 molecules together with their reported answers.
COc1ccc(NS(=O)(=O)NCCSc2nncn2C)cc1OC [Comp 1332]; top end
Nc1nnc(-c2ccc(Nc3ccccc3-c3ccc(Oc4ccccc4)cc3)cc2)s1 [C10]; midrange
Cn1cnnc1-c1ccc(Nc2ccccc2-c2ccc(Oc3ccccc3)cc2)cc1 [D6]; bottom end

In: The entry to classify is Fc1ccc(-c2c(F)cccc2NCc2ccc3[nH]cnc3c2)cc1 [O24] ; which class holds it?
Out: top end

In: The entry to classify is Nc1nnc(CCCNS(=O)(=O)c2ccc(F)cc2)s1 [E2] ; which class holds it?
Out: top end

In: The entry to classify is Nc1nnc(CCCNc2ccccc2-c2ccc(F)cc2)s1 [Comp 93] ; which class holds it?
Out: top end

###

target: Glutaminyl cyclase (QC) (Homo sapiens (Human), UniProt Q16769); experiment: Glutaminyl cyclase assay, determination of IC50 values and calculation of Ki values (H-Gln-AMC substrate, pGAP auxiliary enzyme; pH 8.0 or pH 6.0); format: biochemical; conditions: pH 8, read-out: hQC Ki [μM] pH8
Binning scheme for Ki: L (below 2 µM), M (2 µM to below 5 µM), H (5 µM or more)

Here are 3 compounds together with their reported answers.
COc1ccc(-c2cnccc2NCc2ccc3[nH]cnc3c2)cc1; H
Nc1nnc(-c2ccc(Nc3ncccc3-c3ccc(F)cc3)cc2)s1; M
COc1ccc(-c2cncnc2NCc2ccc3[nH]cnc3c2)cc1; H

In: The entry to classify is `Nc1nnc(SCCNS(=O)(=O)c2ccc(F)cc2)s1` ; which class holds it?
Out: H

In: The entry to classify is `Cn1cnnc1C1CCN(S(=O)(=O)c2ccc(F)cc2)CC1` ; which class holds it?
Out: M

In: The entry to classify is `COc1ccc(-c2ccccc2NCCSc2nnc(N)s2)cc1OC` ; which class holds it?
Out: L

In: The entry to classify is `Cn1cnnc1SCCNS(=O)(=O)c1ccc(F)cc1` ; which class holds it?
Out: H

In: The entry to classify is `COc1ccc(-c2cccnc2NCc2ccc3[nH]cnc3c2)cc1OC` ; which class holds it?
Out: L

In: The entry to classify is `Nc1ncc(C2CCN(S(=O)(=O)c3ccc(F)cc3)CC2)s1` ; which class holds it?
Out: L

In: The entry to classify is `COc1ccc(-c2ccccc2NCc2ccc3[nH]cnc3c2)cc1` ; which class holds it?
Out: L

In: The entry to classify is `c1ccc(-c2ccc(OC3CCCCC3)cc2)c(NCc2ccc3[nH]cnc3c2)c1` ; which class holds it?
Out: M

###

Entries and their measured Ki follow.
molecular target: Glutaminyl cyclase (QC) (Homo sapiens (Human)); experiment: Glutaminyl cyclase assay, determination of IC50 values and calculation of Ki values (H-Gln-AMC substrate, pGAP auxiliary enzyme; pH 8.0 or pH 6.0); assay type: biochemical; conditions: pH 8, read-out: hQC Ki [μM] pH8
The figure you give is taken to be in µM; do not add the unit.

These solved cases illustrate the format of a correct answer.
CC(C)Oc1ccc(-c2ccccc2NCc2ccc3[nH]cnc3c2)cc1 [O19]; 3.39
Fc1cccc(NCc2ccc3[nH]cnc3c2)c1-c1ccc(Cl)cc1 [O22]; 6.83
c1ccc(Oc2ccc(-c3ccccc3NCc3ccc4[nH]cnc4c3)cc2)cc1 [O16]; 2.11
Nc1nnc(-c2ccc(Nc3nccnc3-c3ccc(F)cc3)cc2)s1 [C9]; 6.89
Cn1cnnc1-c1ccc(Nc2ccccc2-c2ccc(F)cc2)cc1 [Comp 826]; 1.74
Cn1cnnc1CCCNc1ccccc1-c1ccc(F)cc1 [Comp 328]; 2.86

The molecule identified as COc1ccc(-c2nccnc2NCc2ccc3[nH]cnc3c2)cc1 [O9] registered its Ki at 2.21

The molecule identified as COc1ccc(-c2cccnc2NCc2ccc3[nH]cnc3c2)cc1 [O5] registered its Ki at 2.41

The molecule identified as Nc1ncc(-c2ccc(NS(=O)(=O)c3ccc(F)cc3)cc2)s1 [I1] registered its Ki at 2.64

The molecule identified as COc1ccc(-c2cnccc2Nc2ccc(-c3nnc(N)s3)cc2)cc1 [C6] registered its Ki at 4.22

The molecule identified as Fc1ccc(-c2ccccc2NCc2ccc3[nH]cnc3c2)cc1 [Comp 1226] registered its Ki at 5.29

The molecule identified as Nc1nnc(SCCNc2ccccc2-c2ccc(F)cc2)s1 [Comp 94] registered its Ki at 11.5

The molecule identified as COc1ccc(-c2c(C)cccc2NCc2ccc3[nH]cnc3c2)cc1 [O20] registered its Ki at 1.64
